# subject.of.test: nsp5 (Severe acute respiratory syndrome coronavirus 2, UniProt P0DTD1)
# experiment.summary: biochemical
# Format: biochemical
# test.parameters: FRET-based assay, Reducing agent: None; read-out: IC50
Where a SMILES comes first, the peptide text is derived from it. [ ]: non-standard residue; d: D form. Nle = CCCC[C@H](N)C(=O)O
reported.property: pIC50
Convention used: pIC50 is expressed as -log10 of the molar concentration.

Using known records, supply pIC50 for CCCC[C@@H](C=O)NC(=O)[C@H](CC(C)C)NC(=O)[C@H](CC(C)C)NC(C)=O [Calpain Inhibitor I] (Ac-Leu-Leu-[Nle]-aldehyde)
5.62
